target: Mcl-1 ΔC23 (UniProt Q07820); test: SPR, Biacore S51, direct binding
Bridge positions count the residues as written; N and C are the ends.
quantity name: Kd (nM)

binder	quantity name	reading unit	meas value
Ac-IAQELRRIGDEF-NH2 [Linear 12mer Ac-…-NH2]	Kd	nM	1200

1: Ac-IAQELRRIGDEF-NH2 (linker 4-11 via 1,5‑diaminopentane) [Acetyl-IAQ(E1)LRRIGD(E2)F-amide with a 1,5-diaminopentane linker (second position)]
2: Ac-IAQQLRRIGDQF-NH2 [L2 Ac-…-NH2]
### Prompt 1 or 2 : whose Kd is greater? Response format: the label of the selected entry.
### Response 2
